# assay.target: NPR-10B (Caenorhabditis elegans, UniProt Q6EUU1)
# Sequence (Q6EUU1 1-362): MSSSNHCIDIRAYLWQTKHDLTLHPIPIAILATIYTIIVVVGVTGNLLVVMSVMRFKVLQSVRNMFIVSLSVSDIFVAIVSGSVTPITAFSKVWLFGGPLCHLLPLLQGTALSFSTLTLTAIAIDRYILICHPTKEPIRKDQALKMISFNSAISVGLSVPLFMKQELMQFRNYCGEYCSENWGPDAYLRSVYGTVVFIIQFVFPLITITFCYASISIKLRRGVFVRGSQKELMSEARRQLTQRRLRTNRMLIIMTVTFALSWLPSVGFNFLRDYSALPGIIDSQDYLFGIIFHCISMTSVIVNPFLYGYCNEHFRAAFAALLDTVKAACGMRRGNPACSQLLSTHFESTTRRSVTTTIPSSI
# method.summary: In vitro GPCR activation assay (CHO-K1 cells, aequorin, human Gα16), NPR-10B
# Assay type: cell-based, C. elegans
# condition.details: title: NPR-10B; calcium/aequorin luminescence in transfected CHO-K1 cells
No end group written: not given here.
Record form. Attribute: EC50. Fill in for each entry.
Lab book: enter the figure in nM, no units written.

Readout EC50 for SAEPFGTMRF-NH2 [FLP-3-7, SAEPFGTMRFamide] , test system NPR-10B (Caenorhabditis elegans, UniProt Q6EUU1), was 439

Readout EC50 for ASEDALFGTMRF-NH2 [FLP-3-5, ASEDALFGTMRFamide] , test system NPR-10B (Caenorhabditis elegans, UniProt Q6EUU1), was 1100

Readout EC50 for EAEEPLGTMRF-NH2 [FLP-3-3, EAEEPLGTMRFamide] , test system NPR-10B (Caenorhabditis elegans, UniProt Q6EUU1), was 867

Readout EC50 for TPLGTMRF-NH2 [FLP-3-2, TPLGTMRFamide] , test system NPR-10B (Caenorhabditis elegans, UniProt Q6EUU1), was 366

Readout EC50 for SPLGTMRF-NH2 [FLP-3-1, SPLGTMRFamide] , test system NPR-10B (Caenorhabditis elegans, UniProt Q6EUU1), was 262

Readout EC50 for NPLGTMRF-NH2 [FLP-3-4, NPLGTMRFamide] , test system NPR-10B (Caenorhabditis elegans, UniProt Q6EUU1), was 427

Readout EC50 for NPENDTPFGTMRF-NH2 [FLP-3-9, NPENDTPFGTMRFamide] , test system NPR-10B (Caenorhabditis elegans, UniProt Q6EUU1), was 760

All values here come from patent US20220380430A1.
